Target Desc: SETD2(1434-1711) (Homo sapiens)
Construct: SETD2 (1434-1711) Assay; catalogue N/A
Sequence (Q9BYW2 1434-1711): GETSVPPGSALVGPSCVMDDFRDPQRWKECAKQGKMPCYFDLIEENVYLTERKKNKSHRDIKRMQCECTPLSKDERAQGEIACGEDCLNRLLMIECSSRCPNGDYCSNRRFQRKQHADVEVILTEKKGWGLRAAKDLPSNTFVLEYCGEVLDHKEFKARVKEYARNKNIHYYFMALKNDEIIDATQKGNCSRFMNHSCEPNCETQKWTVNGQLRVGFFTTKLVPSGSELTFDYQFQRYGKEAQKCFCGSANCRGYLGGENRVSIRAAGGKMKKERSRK
Method Notes: SETD2 (1434-1711) assay
Format: biochemical
Assay Conditions: read-out: SETD2 (1434-1711)
pIC50: −log10 of the molar value.
Assay Metric: pIC50

>>> reported_value("Cc1ccc(F)c2cc(C(=O)NC3CCCC(N4CCN(C(=O)OC(C)C)CC4)C3)[nH]c12 (centres unmarked) [compound 998]")
5.82
>>> reported_value("Cc1ccc(F)c2cc(C(=O)Nc3cccc(N4CCN(C(=O)CCO)CC4)c3)[nH]c12 [compound 149]")
7.15
>>> reported_value("Cc1ccc(F)c2cc(C(=O)Nc3cccc(C4COC4)c3)[nH]c12 [compound 224]")
6.70
>>> reported_value("Cc1ccc(F)c2cc(C(=O)Nc3cccc(N4CCOCC4C4CC4)c3)[nH]c12 (centres unmarked) [compound 306]")
6.40
>>> reported_value("Cc1cccc2cc(C(=O)Nc3ccc4nccn4c3)[nH]c12 [compound 459]")
5.82
>>> reported_value("Cc1ccc(F)c2cc(C(=O)NC3CCCC(N4CCC(N(CCO)S(C)(=O)=O)C4)C3)[nH]c12 (centres unmarked) [compound 1150]")
5.38
